In this section, each of the compounds is paired with its reported IC50.
# Tested on: nonismall cell lung cancer cells (A549)
# method: tumor cell proliferation inhibition test (MTT), A549
# Assay type: cell-based
# test parameters: Homo sapiens, 48 hours

Previously resolved entries follow.
{"compound": "COc1ccc([C@@H]2CC(=O)c3c(O)cc(OC(=O)/C=C/c4ccc(O)c(OC)n4)cc3O2)cc1OC [Compound M]", "system name": "nonismall cell lung cancer cells (A549)", "measured metric": "IC50", "test value": "> 100 µM"}
{"compound": "COc1ccc([C@@H]2CC(=O)c3c(O)cc(OC(=O)/C=C/c4ccc([N+](=O)[O-])cn4)cc3O2)cc1OC [Compound K]", "system name": "nonismall cell lung cancer cells (A549)", "measured metric": "IC50", "test value": "> 100 µM"}
{"compound": "COc1ccc([C@@H]2CC(=O)c3c(O)cc(OC(=O)/C=C/c4ccc(F)cn4)cc3O2)cc1OC [Compound J]", "system name": "nonismall cell lung cancer cells (A549)", "measured metric": "IC50", "test value": "46.3 µM"}
{"compound": "COc1ccc([C@@H]2CC(=O)c3c(O)cc(OC(=O)/C=C/c4ccc([N+](=O)[O-])cn4)cc3O2)cc1O [Compound E]", "system name": "nonismall cell lung cancer cells (A549)", "measured metric": "IC50", "test value": "> 100 µM"}
{"compound": "COc1ccc([C@@H]2CC(=O)c3c(O)cc(OC(=O)/C=C/c4ccc(C)cn4)cc3O2)cc1O [Compound B]", "system name": "nonismall cell lung cancer cells (A549)", "measured metric": "IC50", "test value": "> 100 µM"}

Q) Name the reported IC50 value associated with the compound COc1ccc([C@@H]2CC(=O)c3c(O)cc(OC(=O)/C=C/c4ccc(Cl)cn4)cc3O2)cc1OC [Compound I]
A) > 100 µM

Q) Name the reported IC50 value associated with the compound COc1ccc([C@@H]2CC(=O)c3c(O)cc(OC(=O)/C=C/c4ccc(Cl)cn4)cc3O2)cc1O [Compound C]
A) 5.54 µM

Q) Name the reported IC50 value associated with the compound COc1ccc([C@@H]2CC(=O)c3c(O)cc(OC(=O)/C=C/c4ccccn4)cc3O2)cc1O [Compound A]
A) 35.1 µM

Q) Name the reported IC50 value associated with the compound Nc1ccn([C@@H]2O[C@H](CO)[C@@H](O)[C@@H]2O)c(=O)n1 [Ara-C, cytarabine, reference compound]
A) > 100 µM

Q) Name the reported IC50 value associated with the compound COc1ccc([C@@H]2CC(=O)c3c(O)cc(OC(=O)/C=C/c4ccc(C)cn4)cc3O2)cc1OC [Compound H]
A) > 100 µM

Q) Name the reported IC50 value associated with the compound COc1ccc([C@@H]2CC(=O)c3c(O)cc(OC(=O)/C=C/c4ccc(F)cn4)cc3O2)cc1O [Compound D]
A) 7.28 µM

Q) Name the reported IC50 value associated with the compound COc1ccc([C@@H]2CC(=O)c3c(O)cc(OC(=O)/C=C/c4ccccn4)cc3O2)cc1OC [Compound G]
A) 69.1 µM

Q) Name the reported IC50 value associated with the compound COc1ccc([C@@H]2CC(=O)c3c(O)cc(OC(=O)/C=C/c4ccc(O)c(OC)n4)cc3O2)cc1O [Compound F]
A) > 100 µM

These entries and their values trace back to patent US10059698B2.
